# target-system: KRas (Homo sapiens (Human))
# Sequence (P01116-2 other isoform, or with tags, fused parts or gaps): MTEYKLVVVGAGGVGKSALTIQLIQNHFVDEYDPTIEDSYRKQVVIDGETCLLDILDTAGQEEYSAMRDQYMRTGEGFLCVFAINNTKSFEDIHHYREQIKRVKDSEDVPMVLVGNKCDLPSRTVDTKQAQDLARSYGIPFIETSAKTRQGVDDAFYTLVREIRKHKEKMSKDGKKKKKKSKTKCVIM
assay-metric: IC50 (pM)

Illustrative cases are given below, each with its answer.
compound	target-system	IC50 [pM]
Cc1cc(N)cc(-c2cc3nc(OC[C@@]45CCCN4C[C@H](F)C5)nc4c3c(c2Cl)OCCN4C)c1C(F)(F)F [Example 39]	KRas (Homo sapiens (Human))	140000
Cc1cc(N)nc(-c2c(Cl)c3c4c(nc(OC[C@H]5CC[C@@H]6CO[C@@H](C)CN56)nc4c2F)N([C@H](C)c2cccnc2N)CCO3)c1C(F)(F)F (atropisomer, axis not shown; (aR)) [Example 93b]	KRas (Homo sapiens (Human))	350
Cc1c(F)c(N)cc(-c2c(Cl)c3c4c(nc(OC[C@@]56CCCN5C[C@H](F)C6)nc4c2F)N([C@H](C)c2cccnc2N)CCO3)c1C(F)(F)F (atropisomer, axis not shown; (aS)) [Example 76a]	KRas (Homo sapiens (Human))	102
Cc1cc(N)nc(-c2c(Cl)c3c4c(nc(OC[C@@]5(C)CC(F)(F)CN5C)nc4c2F)N([C@H](C)c2cccnc2N)CCO3)c1C(F)(F)F (atropisomer, axis not shown) [Example 122b]	KRas (Homo sapiens (Human))	202
C[C@H](c1cccnc1N)N1CCOc2c(Cl)c(-c3nc(N)cc4ccccc34)c(F)c3nc(OC[C@@]45CCCN4C[C@H](F)C5)nc1c23 (atropisomer, axis not shown; (aS)) [Example 113a]	KRas (Homo sapiens (Human))	200
Cc1cc(N)nc(-c2c(Cl)c3c4c(nc(OC[C@@]56CCN5CC(F)(F)C6)nc4c2F)N([C@H](C)c2cncnc2N)CCO3)c1C(F)(F)F (atropisomer, axis not shown) [Example 82a]	KRas (Homo sapiens (Human))	164

I = Cc1cc(N)nc(-c2c(Cl)c3c4c(nc(OC[C@@H]5CC[C@H]6CN(CC(F)(F)F)CCN56)nc4c2F)N([C@H](C)c2cccnc2N)CCO3)c1C(F)(F)F (atropisomer, axis not shown; (aS)) [Example 129a]
II = Cc1cc(N)nc(-c2c(Cl)c3c4c(nc(OC[C@H]5CC[C@@H]6CO[C@H](C)CN56)nc4c2F)N([C@H](C)c2cccnc2N)CCO3)c1C(F)(F)F (atropisomer, axis not shown; (aR)) [Example 93d]
III = Cc1cc(N)nc(-c2c(Cl)c3c4c(nc(OC[C@]56CCN5CC(F)(F)C6)nc4c2F)N([C@H](C)c2ccnnc2N)CCO3)c1C(F)(F)F (atropisomer, axis not shown) [Example 77b]
IV = Cc1cc(N)nc(-c2c(Cl)c3c4c(nc(OC[C@@H]5CC[C@H]6CO[C@H](C)CN56)nc4c2F)N([C@H](C)c2cccnc2N)CCO3)c1C(F)(F)F (atropisomer, axis not shown; (aS)) [Example 93c]
Rank the items in ascending order with respect to IC50. Output spec: labels arranged per the requested ranking.
II, IV, I, III
(II: 84.9 pM, IV: 145 pM, I: 232 pM, III: 340 pM)

---

# target-system: UniProt:P01116
assay-metric: IC50 (nM)

Solved cases below.
molecule	quantity-unit	observed
Cc1cc(N)nc(-c2c(Cl)c3c4c(nc(OC[C@@H]5CCCN5CC(F)F)nc4c2F)N([C@H](C)c2nccnc2N)CCO3)c1C(F)(F)F (atropisomer, axis not shown) [Example 158b]	nM	680
Cc1cc(N)nc(-c2cc3ncnc4c3c(c2Cl)OCCN4Cc2c(C(F)F)ccnc2N)c1C(F)(F)F	nM	2000
Cc1cc(N)nc(-c2c(F)c3c4c(nc(OC[C@@]56CCCN5C[C@H](F)C6)nc4c2F)N([C@H](C)c2cccnc2N)CCO3)c1C(F)(F)F (atropisomer, axis not shown; (aS)) [Example 66a]	nM	0.12
Cc1cc(N)nc(-c2c(Cl)c3c4c(ncnc4c2F)N([C@H](C)c2cccnc2N)CCO3)c1C(F)(F)F (atropisomer, axis not shown) [Example 53a]	nM	1.2
Cc1cc(N)nc(-c2c(Cl)c3c4c(nc(OC[C@H]5CC[C@@H]6COCCN65)nc4c2F)N([C@H](C)c2cncnc2N)CCO3)c1C(F)(F)F (atropisomer, axis not shown; (aR)) [Example 102b]	nM	0.49
Cc1cc(N)nc(-c2cc3ncnc4c3c(c2Cl)OCCN4C2CCc3ccncc32)c1C(F)(F)F (centres unmarked)	nM	3400

I = Cc1cc(N)nc(-c2c(Cl)c3c4c(nc(N5CC6(COCCN6)C5)nc4c2F)N([C@H](C)c2cccnc2N)CCO3)c1C(F)(F)F (atropisomer, axis not shown)
II = Cc1cc(N)nc(-c2c(Cl)c3c4c(nc(OC[C@@H](C)N5CCOCC5)nc4c2F)N([C@H](C)c2cccnc2N)CCO3)c1C(F)(F)F (atropisomer, axis not shown) [Example 95b]
III = Cc1cc(N)nc(-c2c(Cl)c3c4c(nc(OC[C@@]56CCCN5C[C@H](F)C6)nc4c2F)N([C@@H]2CCCc4ccnc(N)c42)CCO3)c1C(F)(F)F (atropisomer, axis not shown; (aS)) [Example 65a]
IV = Cc1cc(N)nc(-c2c(Cl)c3c4c(nc(OC[C@]56CCCN5CC(F)(F)C6)nc4c2F)N([C@H](C)c2nccnc2N)CCO3)c1C(F)(F)F (atropisomer, axis not shown) [Example 166b]
V = Cc1cc(N)nc(-c2c(Cl)c3c4c(nc(OC[C@@H]5CCCN5CC(F)F)nc4c2F)N([C@H](C)c2nccnc2N)CCO3)c1C(F)(F)F (atropisomer, axis not shown) [Example 158a]
hey, can you rank those molecules up there by IC50? biggest number first please Please list each label once, in the requested order.
IV, V, I, II, III

I = Cc1cc(N)nc(-c2c(Cl)c3c4c(nc(OC[C@H]5CC[C@@H]6CN(CC(F)(F)F)CCN56)nc4c2F)N([C@H](C)c2cccnc2N)CCO3)c1C(F)(F)F (atropisomer, axis not shown; (aR)) [Example 129b]
II = Cc1cc(N)nc(-c2c(Cl)c3c4c(nc(OCC56CCC(CC5)OC6)nc4c2F)N([C@H](C)c2cccnc2N)CCO3)c1C(F)(F)F
Return label of the item with the larger IC50. Candidates: I , II . Mark your answer with the label of the selected entry.
II

---

# target-system: KRas(G12V) (Homo sapiens (Human), UniProt P01116, G12V)
# Sequence (P01116-2 other isoform, or with tags, fused parts or gaps G12V): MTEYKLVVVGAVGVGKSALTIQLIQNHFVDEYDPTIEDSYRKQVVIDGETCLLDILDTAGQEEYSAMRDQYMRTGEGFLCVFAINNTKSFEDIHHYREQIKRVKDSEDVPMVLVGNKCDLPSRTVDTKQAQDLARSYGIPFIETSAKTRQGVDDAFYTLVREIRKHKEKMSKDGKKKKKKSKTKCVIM
# test-description: KRas(G12V) GDP HTRF (BODIPY-GDP exchange TR-FRET)
assay-metric: IC50 (nM)

compound	target-system	quantity-unit	IC50
Cc1cc(N)nc(-c2c(Cl)c3c4c(nc(OC[C@@]56CCCN5C[C@H](F)C6)nc4c2F)N(Cc2cccnc2N)CCO3)c1C(F)(F)F (single isomer, unassigned) [Example 42b]	KRas(G12V) (Homo sapiens (Human), UniProt P01116, G12V)	nM	55
Cc1cc(N)nc(-c2c(Cl)c3c4c(nc(OCC56C[C@@H](F)CN5C[C@H](F)C6)nc4c2F)N([C@H](C)c2cccnc2N)CCO3)c1C(F)(F)F (atropisomer, axis not shown) [Example 98a]	KRas(G12V) (Homo sapiens (Human), UniProt P01116, G12V)	nM	0.11
Cc1cc(N)nc(-c2c(Cl)c3c4c(nc(OC[C@@]56CCN5CC(F)(F)C6)nc4c2F)N([C@H](C)c2cccnc2N)CCO3)c1C(F)(F)F (atropisomer, axis not shown) [Example 114a]	KRas(G12V) (Homo sapiens (Human), UniProt P01116, G12V)	nM	0.24

1 = Cc1cc(N)nc(-c2cc3nc(OC[C@@]45CCCN4C[C@H](F)C5)nc4c3c(c2Cl)OCCN4Cc2cn[nH]c2)c1C(F)(F)F [Example 2]
2 = Cc1cc(N)c(F)c(-c2c(Cl)c3c4c(nc(OC[C@@]56CCCN5C[C@H](F)C6)nc4c2F)N([C@H](C)c2cccnc2N)CCO3)c1C(F)(F)F (single isomer, unassigned) [Example 73a]
Please tell me which of the two, 1 or 2 , has the higher reported IC50 value. Record your answer as the label of the chosen record.
1

---

# target-system: KRAS G12D (Homo sapiens (Human), UniProt P01116, G12D)
# Sequence (P01116-2 other isoform, or with tags, fused parts or gaps G12D): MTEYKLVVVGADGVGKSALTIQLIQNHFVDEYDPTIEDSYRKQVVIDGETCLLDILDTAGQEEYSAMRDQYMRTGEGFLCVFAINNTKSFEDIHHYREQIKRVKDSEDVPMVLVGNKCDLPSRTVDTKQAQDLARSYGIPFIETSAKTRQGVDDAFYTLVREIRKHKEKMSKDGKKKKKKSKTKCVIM
# test-description: KRas (G12D) GDP HTRF (BODIPY-GDP exchange TR-FRET)
# Format: biochemical
assay-metric: IC50 (nM)

molecule	quantity-unit	IC50
Cc1cc(N)nc(-c2cc3ncnc4c3c(c2Cl)OCCN4CCN(C)CCO)c1C(F)(F)F	nM	2770
C=C1CN2CCC[C@@]2(COc2nc3c4c(c(F)c(-c5nc(N)cc(C)c5C(F)(F)F)c(F)c4n2)OCCN3CCN(C)C)C1 (single isomer, unassigned) [Example 523]	nM	11.9
Cc1cc(N)nc(-c2cc3ncnc4c3c(c2Cl)OC[C@H](CC#N)N4C2CCNC2)c1C(F)(F)F (single isomer, unassigned) [Example 507]	nM	276

I = C=C1CN2CCC[C@@]2(COc2nc3c4c(c(F)c(-c5nc(N)cc(C)c5C(F)(F)F)c(F)c4n2)OCCN3CCN(C)C)C1 (single isomer, unassigned) [Example 524]
II = Cc1cc(N)nc(-c2cc3ncnc4c3c(c2Cl)OCCN4CCN2CCOCC2)c1C(F)(F)F
Which of these two has the smaller recorded IC50: I or II ? Kindly give the label for the entry you pick.
I
(I: 480 nM, II: 3460 nM)

1 = Cc1cc(N)nc(-c2cc3ncnc4c3c(c2Cl)OC[C@H](CC#N)N4C2CCNC2)c1C(F)(F)F (single isomer, unassigned) [Example 508]
2 = C=C1CN2CCC[C@@]2(COc2nc3c4c(c(Cl)c(-c5nc(N)cc(C)c5C(F)(F)F)c(F)c4n2)OCCN3CCN(C)C)C1 (single isomer, unassigned) [Example 514]
Select one. Lower IC50: 1 or 2 Give the label of your selection.
1
(1: 472 nM, 2: 817 nM)
